Consider the following compounds; for each one, report its IC50.
Target or test system: Phosphatidylinositol 4,5-bisphosphate 3-kinase catalytic subunit alpha isoform (Homo sapiens)
Sequence (P42336 whole entry, canonical isoform): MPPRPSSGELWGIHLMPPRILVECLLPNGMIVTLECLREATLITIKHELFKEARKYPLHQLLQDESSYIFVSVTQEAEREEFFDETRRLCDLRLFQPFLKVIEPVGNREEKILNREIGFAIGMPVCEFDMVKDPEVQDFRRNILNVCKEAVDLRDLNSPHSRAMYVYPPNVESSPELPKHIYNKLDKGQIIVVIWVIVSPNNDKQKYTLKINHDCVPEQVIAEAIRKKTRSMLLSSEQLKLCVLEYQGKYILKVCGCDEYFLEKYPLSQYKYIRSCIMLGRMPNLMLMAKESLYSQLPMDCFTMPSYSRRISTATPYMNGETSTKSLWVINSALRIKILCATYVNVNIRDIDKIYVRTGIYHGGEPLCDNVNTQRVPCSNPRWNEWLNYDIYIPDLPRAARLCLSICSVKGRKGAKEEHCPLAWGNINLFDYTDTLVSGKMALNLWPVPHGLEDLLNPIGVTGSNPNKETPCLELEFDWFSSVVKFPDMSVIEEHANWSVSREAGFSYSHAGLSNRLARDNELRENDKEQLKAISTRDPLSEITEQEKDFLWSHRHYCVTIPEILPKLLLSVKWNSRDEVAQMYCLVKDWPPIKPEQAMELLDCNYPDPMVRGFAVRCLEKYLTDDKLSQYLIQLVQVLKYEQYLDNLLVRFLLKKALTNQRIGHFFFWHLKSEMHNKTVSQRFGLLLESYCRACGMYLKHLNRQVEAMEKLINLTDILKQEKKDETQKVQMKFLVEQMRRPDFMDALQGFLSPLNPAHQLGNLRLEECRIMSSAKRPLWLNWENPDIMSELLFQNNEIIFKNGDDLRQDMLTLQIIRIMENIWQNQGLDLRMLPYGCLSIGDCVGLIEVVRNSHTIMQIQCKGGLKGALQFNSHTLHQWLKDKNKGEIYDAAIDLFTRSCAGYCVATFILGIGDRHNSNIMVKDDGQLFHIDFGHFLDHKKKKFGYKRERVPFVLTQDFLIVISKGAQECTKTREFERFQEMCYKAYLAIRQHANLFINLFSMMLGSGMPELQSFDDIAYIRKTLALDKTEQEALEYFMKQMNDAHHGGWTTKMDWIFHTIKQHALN
Experimental details: Inhibition of PI3Kalpha after 80 mins
Field format: number, assumed µM, no unit text.

What value of measured IC50 is listed for O=C(CN1CCOCC1)Nc1ccc(-c2cccc3c(=O)cc(N4CCOCC4)oc23)cc1OCC1CCC1 ?
0.29

I am curious: what IC50 value has been reported for CC(C)COc1cc(-c2cccc3c(=O)cc(N4CCOCC4)oc23)ccc1NC(=O)CN1CCOCC1 ?
0.15

Any idea what its IC50 is? The compound is CC1(COc2cc(-c3cccc4c(=O)cc(N5CCOCC5)oc34)ccc2NC(=O)CN2CCOCC2)CCC1
0.27

// IC50 lookup, key: NC(=O)COc1cc(-c2cccc3c(=O)cc(N4CCOCC4)oc23)ccc1NC(=O)CN1CCOCC1
1.1

Need IC50 of O=C(CN1CCOCC1)Nc1ccc(-c2cccc3c(=O)cc(N4CCOCC4)oc23)cc1O , thanks.
0.43

IC50 lookup needed for NCCOc1cc(-c2cccc3c(=O)cc(N4CCOCC4)oc23)ccc1NC(=O)CN1CCOCC1 , thanks.
3

Please look up its IC50: COc1cc(-c2cccc3c(=O)cc(N4CCOCC4)oc23)ccc1NC(=O)CN1CCOCC1
0.35

Recorded IC50 of O=c1cc(N2CCOCC2)oc2c(-c3cccc4c3sc3ccccc34)cccc12 , please.
0.13

Need IC50 of CC1(COc2cc(-c3cccc4c(=O)cc(N5CCOCC5)oc34)ccc2NC(=O)CN2CCOCC2)COC1 , thanks.
0.3
